Assay: Plasma micafungin concentration monitoring by HPLC
Format: in vivo, human preterm neonate
Conditions: human, iv; 8 mg/kg/day i.v. over one hour; third day of therapy; plasma; HPLC; one patient; read-out: Plasma micafungin concentration, 2 h after infusion
Starred links: 1 amine or outer side, 2 acyl side, 3 side chain; linkers in the order of their positions; H or OH if unused. Positions of bridges follow the written chain, without caps; N, C: chain ends. Non-standard residues stand in square brackets, D forms with d. Residues, ends and D or L forms follow the SMILES beside them. *: point of attachment. hTyr(3S-OH,4S-OH,3'-OSO3H) = N[C@H](C(=O)O)[C@H](O)[C@@H](O)c1ccc(O)c(OS(=O)(=O)O)c1; Orn(4R-OH,5R-OH) = O=C([C@H](C[C@@H](O)[C@@H](O)N[*:3])N[*:1])[*:2]; Pro(3S-OH,4S-Me) = C[C@H]1CN[C@H](C(=O)O)[C@H]1O; X1 = CCCCCOc1ccc(-c2cc(-c3ccc(C(=O)*)cc3)no2)cc1; Gln(3R-OH) = NC(=O)C[C@@H](O)[C@H](N)C(=O)O; Hyp = O=C(O)[C@@H]1C[C@@H](O)CN1
outcome.measure: level at 2 h (µg/mL)
Just the number in µg/mL, nothing appended.

# input molecule: CCCCCOc1ccc(-c2cc(-c3ccc(C(=O)N[C@H]4C[C@@H](O)[C@@H](O)NC(=O)[C@@H]5[C@@H](O)[C@@H](C)CN5C(=O)[C@H]([C@H](O)CC(N)=O)NC(=O)[C@H]([C@H](O)[C@@H](O)c5ccc(O)c(OS(=O)(=O)O)c5)NC(=O)[C@@H]5C[C@@H](O)CN5C(=O)[C@H]([C@@H](C)O)NC4=O)cc3)no2)cc1 [micafungin] (X1-[Orn(4R-OH,5R-OH)]T[Hyp][hTyr(3S-OH,4S-OH,3'-OSO3H)][Gln(3R-OH)][Pro(3S-OH,4S-Me)]; lactam 1-C) ; wanted: its level at 2 h 9.7
